tested on: HCT-116; assay: Antiproliferative activity against human HCT116 cells after 72 hrs by MTT assay; format: functional, cell-based; conditions: HCT-116, 72 h
Each entry below lists one item and its recorded IC50 value.
Result type: IC50 (µM)

- Compound: "O=c1c2ccccc2n(CCO)c2nc3c(cc12)ncn3C1CCCC1"
  Unit text: "µM"
  Experimental value: 48.7
- Compound: "O=c1c2ccccc2[nH]c2nc3c(cc12)ncn3-c1ccccc1"
  Unit text: "µM"
  Experimental value: 73.1
- Compound: "CCN(CC)CCn1c2ccccc2c(=O)c2cc3ncn(-c4ccccc4)c3nc21"
  Unit text: "µM"
  Experimental value: 12.9
- Compound: "COc1cccc2c1C(=O)c1c(O)c3c(c(O)c1C2=O)C[C@@](O)(C(=O)CO)C[C@@H]3O[C@H]1C[C@H](N)[C@H](O)[C@H](C)O1 [DOXORUBICIN]"
  Unit text: "µM"
  Experimental value: 0.18
